Provenance of the data: ChEMBL document CHEMBL3046410

# assay.explanation: Binding affinity to Cu2+
# Format: physicochemical
assay.readout: Ka (×10³ /M)
# output: bare number, implied unit ×10³ /M

>  <molecule>
Oc1cccc(/N=C/c2ccccc2O)c1

>  <unit.spec>
×10³ /M

>  <Ka>
3.02

$$$$

Query molecule follows.
If you can, please state the reported Ka value of Oc1ccc(/N=C/c2ccccc2)cc1 [4-(BENZYLIDENEAMINO)PHENOL] .
3.17

* * *

Ka overview
# assay.explanation: Binding affinity to Fe2+

Previously resolved entries follow.
>  <compound>
Oc1ccc(/N=C/C=C/c2ccccc2)cc1

>  <Ka>
2.47 ×10⁴ /M

$$$$
>  <compound>
Oc1cccc(/N=C/C=C/c2ccccc2)c1

>  <Ka>
6.25 ×10³ /M

$$$$

Query compound follows.
If you can, please state the reported Ka value of CN(C)c1ccc(/C=N/c2ccc(O)cc2)cc1 .
5.03 ×10³ /M
